- System: 519858-162-T-J1-PDC complex spheroid viability;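 also: spheroids exposed to compounds for 7 days; 100% = DMSO vehicle control viability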
- protocol_text: Anticancer human tumor 519858-162-T-J1-PDC patient-derived colon adenocarcinoma cell line growth inhibition [GQUAD]
- assay_context: second compound 0.1 µM; first compound 0.1 µM; hits give low values
Entries annotated with measured viability, T/C
Number in %, nothing else.

INSERT INTO results (compound, measured_metric, data_value) VALUES
  ('CCCS(=O)(=O)Nc1ccc(F)c(C(=O)c2c[nH]c3ncc(-c4ccc(Cl)cc4)cc23)c1F + Cc1[nH]c2ccc(F)cc2c1-c1nc2c3cccnc3c3ncccc3c2[nH]1', 'viability, T/C', 119),
  ('COc1cccc2c1C(=O)c1c(O)c3c(c(O)c1C2=O)CC(O)(C(=O)CO)CC3OC1CC(N)C(O)C(C)O1 (stereo not given) + CN(C)c1ccc(Nc2c3ccc(NC(=O)CCN4CCCC4)cc3nc3cc(NC(=O)CCN4CCCC4)ccc23)cc1', 'viability, T/C', 84.6),
  ('COc1cc(C2c3cc4c(cc3C(OC3OC5COC(C)OC5C(O)C3O)C3COC(=O)C23)OCO4)cc(OC)c1O (stereo not given) + Cc1[nH]c2ccc(F)cc2c1-c1nc2c3cccnc3c3ncccc3c2[nH]1', 'viability, T/C', 130);

Query: Would you kindly share the measured viability, T/C for COc1cc(C2c3cc4c(cc3C(OC3OC5COC(C)OC5C(O)C3O)C3COC(=O)C23)OCO4)cc(OC)c1O (stereo not given) + CN(C)c1ccc(Nc2c3ccc(NC(=O)CCN4CCCC4)cc3nc3cc(NC(=O)CCN4CCCC4)ccc23)cc1 ?
Response: 81.8

Query: Would you kindly share the measured viability, T/C for CC1COCCN1c1cc(C2(S(C)(=N)=O)CC2)nc(-c2ccnc3[nH]ccc23)n1 (stereo not given) + Cc1[nH]c2ccc(F)cc2c1-c1nc2c3cccnc3c3ncccc3c2[nH]1 ?
Response: 106

Query: Would you kindly share the measured viability, T/C for Cc1cccc(N(C)C(=O)C2C(O)CCN2c2nc(C)cc(C(F)(F)F)c2C#N)c1 (stereo not given) + CN(C)c1ccc(Nc2c3ccc(NC(=O)CCN4CCCC4)cc3nc3cc(NC(=O)CCN4CCCC4)ccc23)cc1 ?
Response: 78.6

Query: Would you kindly share the measured viability, T/C for C#Cc1c(F)ccc2cc(O)cc(-c3ncc4c(N5CC6CCC(C5)N6)nc(OCC56CCCN5CC(F)C6)nc4c3F)c12 (stereo not given) + Cc1[nH]c2ccc(F)cc2c1-c1nc2c3cccnc3c3ncccc3c2[nH]1 ?
Response: 85.9

Query: Would you kindly share the measured viability, T/C for O=C(c1cc(Cc2n[nH]c(=O)c3ccccc23)ccc1F)N1CCN(C(=O)C2CC2)CC1 + Cc1[nH]c2ccc(F)cc2c1-c1nc2c3cccnc3c3ncccc3c2[nH]1 ?
Response: 85.3

Query: Would you kindly share the measured viability, T/C for CC1COCCN1c1cc(-c2ccnn2C)c2ccnc(-c3ccn[nH]3)c2n1 (stereo not given) + CN(C)c1ccc(Nc2c3ccc(NC(=O)CCN4CCCC4)cc3nc3cc(NC(=O)CCN4CCCC4)ccc23)cc1 ?
Response: 106

Query: Would you kindly share the measured viability, T/C for C=CC(=O)N1CCN(c2nc(=O)n(-c3c(C)ccnc3C(C)C)c3nc(-c4c(O)cccc4F)c(F)cc23)C(C)C1 (stereo not given) + Cc1[nH]c2ccc(F)cc2c1-c1nc2c3cccnc3c3ncccc3c2[nH]1 ?
Response: 96.3

Query: Would you kindly share the measured viability, T/C for C=CC(=O)N1CCN(c2nc(=O)n(-c3c(C)ccnc3C(C)C)c3nc(-c4c(O)cccc4F)c(F)cc23)C(C)C1 (stereo not given) + Cc1cnc(CNC(=O)c2c(=O)c3ccc(N4CCCN(C)CC4)nc3n3c2sc2ccccc23)cn1 ?
Response: 70.4

Query: Would you kindly share the measured viability, T/C for CC1COCCN1c1cc(C2(S(C)(=N)=O)CC2)nc(-c2ccnc3[nH]ccc23)n1 (stereo not given) + CN(C)c1ccc(Nc2c3ccc(NC(=O)CCN4CCCC4)cc3nc3cc(NC(=O)CCN4CCCC4)ccc23)cc1 ?
Response: 124

Query: Would you kindly share the measured viability, T/C for COc1cccc2c1C(=O)c1c(O)c3c(c(O)c1C2=O)CC(O)(C(=O)CO)CC3OC1CC(N)C(O)C(C)O1 (stereo not given) + Cc1cnc(CNC(=O)c2c(=O)c3ccc(N4CCCN(C)CC4)nc3n3c2sc2ccccc23)cn1 ?
Response: 80.2

Query: Would you kindly share the measured viability, T/C for COc1ccc([C@@H](O)c2cc(-c3ncnc4cc(N5CCOCC5)ccc34)c(F)cc2Cl)nn1 + Cc1cnc(CNC(=O)c2c(=O)c3ccc(N4CCCN(C)CC4)nc3n3c2sc2ccccc23)cn1 ?
Response: 70.5

Query: Would you kindly share the measured viability, T/C for CC(=O)O[C@H]1C(=O)[C@@]2(C)[C@H]([C@H](OC(=O)c3ccccc3)[C@]3(O)C[C@H](OC(=O)[C@H](O)[C@@H](NC(=O)c4ccccc4)c4ccccc4)C(C)=C1C3(C)C)[C@]1(OC(C)=O)CO[C@@H]1C[C@@H]2O + Cc1cnc(CNC(=O)c2c(=O)c3ccc(N4CCCN(C)CC4)nc3n3c2sc2ccccc23)cn1 ?
Response: 90.9
